Entries annotated with measured pEC50
- Study Target: human GPR40 (Homo sapiens)
- Sequence (O14842 whole entry): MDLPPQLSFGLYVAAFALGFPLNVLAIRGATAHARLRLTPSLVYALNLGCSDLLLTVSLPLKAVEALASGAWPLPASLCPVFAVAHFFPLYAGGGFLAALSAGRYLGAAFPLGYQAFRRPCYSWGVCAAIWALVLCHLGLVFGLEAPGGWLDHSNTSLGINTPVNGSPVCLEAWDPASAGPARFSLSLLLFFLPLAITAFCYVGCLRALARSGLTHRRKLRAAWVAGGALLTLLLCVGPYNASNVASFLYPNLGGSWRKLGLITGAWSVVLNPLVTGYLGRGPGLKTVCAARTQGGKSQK
- Test Details: FDSS-based intracellular calcium assay (Human GPR40 in vitro assay)
- Format: cell-based
- Set-up: 3xFLAG; expressed in transfected cells
- Condition Notes: intracellular Ca2+ response, cells expressing GPR40; read-out: hGPR40 EC50
pEC50: −log10 of the molar value.
Parameter Measured: pEC50

[[record]]
compound = "C[C@@H]1C(C(F)(F)F)=NN(c2ccc(OC3CCN(c4cc5c(cc4Cl)OCO5)CC3)cc2)[C@H]1CC(=O)O [Example B14]"
parameter_measured = "pEC50"
measurement = 6.24

[[record]]
compound = "COc1cc(N2CC(COc3ccc(N4N=C(C(F)(F)F)[C@@H](C)[C@@H]4CC(=O)O)cc3)C2)c(Cl)cn1 [Example B33]"
parameter_measured = "pEC50"
measurement = 6.15

[[record]]
compound = "COCC1CN(c2cc(OC)ncc2Cl)CCC1Oc1ccc(N2N=C(C(F)(F)F)[C@@H](C)[C@@H]2CC(=O)O)cc1 (single isomer, unassigned) [Example B3, Isomer 1]"
parameter_measured = "pEC50"
measurement = 6.45

[[record]]
compound = "C[C@@H]1C(C(F)(F)F)=NN(c2ccc(OC3CCN(c4cccc5c4OCCO5)CC3)cc2)[C@H]1CC(=O)O [Example B19]"
parameter_measured = "pEC50"
measurement = 5.21

[[record]]
compound = "Cc1nc(C)c(N2CCC(Oc3ccc(N4N=C(C(F)(F)F)[C@@H](C)[C@@H]4CC(=O)O)cc3)CC2)s1 [Example B16]"
parameter_measured = "pEC50"
measurement = 5.96

[[record]]
compound = "C[C@@H]1C(C(F)(F)F)=NN(c2ccc(OC3CCN(C(=O)OC(C)(C)C)CC3)cc2)[C@H]1CC(=O)O [Example 15]"
parameter_measured = "pEC50"
measurement = 5.77

[[record]]
compound = "CCOc1ccc(F)c(N2CCC(Oc3ccc(N4N=C(c5ccc(C#N)c(C#N)c5)[C@@H](C)[C@@H]4CC(=O)O)cc3)CC2)c1 [Example 96]"
parameter_measured = "pEC50"
measurement = 5.80

[[record]]
compound = "COc1cc(N2CCC(Cc3ccc(N4N=C(C(F)(F)F)[C@@H](C)[C@@H]4CC(=O)O)cc3)CC2)ccn1 [Example B9]"
parameter_measured = "pEC50"
measurement = 5.58

[[record]]
compound = "COc1cc(N2CCC(Oc3ccc(N4N=C(C#N)C(C)C4CC(=O)O)cc3)C(C)C2)c(Cl)cn1 (single isomer, unassigned) [Example B6, Isomer 2]"
parameter_measured = "pEC50"
measurement = 5.31

[[record]]
compound = "CCCc1cnc(N2CCC(Oc3ccc(N4N=C(C(F)(F)F)[C@@H](C)[C@@H]4CC(=O)O)cc3)CC2)nc1 [Example 5]"
parameter_measured = "pEC50"
measurement = 5.24

[[record]]
compound = "COc1cc(N2CC(CCc3ccc(N4N=C(C(F)(F)F)[C@@H](C)[C@@H]4CC(=O)O)cc3)C2)c(Cl)cn1 [Example B36]"
parameter_measured = "pEC50"
measurement = 6.23

[[record]]
compound = "COc1ccc(F)c(N2C[C@@H]3C[C@H]2CC3Oc2ccc(N3N=C(C(F)(F)F)[C@@H](C)[C@@H]3CC(=O)O)cc2)c1 (stereo partly shown) [Example 70]"
parameter_measured = "pEC50"
measurement = 6.00

[[record]]
compound = "COc1ccc(F)c(N2CCCC(Oc3ccc(N4N=C(C(F)(F)F)[C@@H](C)[C@@H]4CC(=O)O)cc3)CC2)c1 (stereo partly shown) [Example 23]"
parameter_measured = "pEC50"
measurement = 5.52

